read-out: Low-density lipoprotein receptor (LDLR), LDLR (gene 3949); assay: BSK_CASM3C_LDLR: BioMAP Diversity Plus: CASM3C Assay for Low-density lipoprotein receptor (LDLR) Biomarker Activity (AID 2283045); details: primary human coronary artery smooth muscle cells; actives raise or lower the signal;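 further: LDLR protein level on the cell surface quantified by ELISA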
Calls of active or inactive are those of the source. How the source made its calls: active means hit-call score of the fitted dose curve at least 0.9, where 1 is the maximum; inactive means score below 0.9.
Reply using exactly one outcome from 1 (yes) = active, 0 (no) = inactive

Some solved cases for reference:
For "O=C1C=CC(=O)C=C1" , which call appears in the assay record?
0 (no)

For "O=c1[nH]c(Cl)c(Cl)cc1Cl" , which call appears in the assay record?
0 (no)

Continuing:
For "O=c1c2ccccc2c(=O)c2c1cc(Cl)c1[nH]c3c([nH]c12)c(Cl)cc1c(=O)c2ccccc2c(=O)c13" , which call appears in the assay record?
0 (no)

For "COCC(=O)N(c1c(C)cccc1C)N1CCOC1=O" , which call appears in the assay record?
0 (no)

For "CC(C)CCCCCCCOC(=O)c1ccccc1C(=O)OCCCCCCCC(C)C" , which call appears in the assay record?
0 (no)

For Cc1ccc(OP(=O)(Oc2ccc(C)cc2)Oc2ccc(C)cc2)cc1 (tested in a mixture with another compound) , which call appears in the assay record?
0 (no)

For CC(C)(C)C(O)C(Oc1ccc(-c2ccccc2)cc1)n1cncn1 (configuration not stated) , which call appears in the assay record?
1 (yes)
